Tested on: Thymidine kinase (Human alphaherpesvirus 1)
measurement.notes: Phosphorylation of compound by purified HSV-1 (F strain) thymidine kinase
Design: concentration or dose not given beside the values
result.type: Activity (%)
Answers are plain numbers, in %.

Study these solved cases before continuing.
[N-]=[N+]=NC[C@@H](CO)OCn1cnc2c(O)nc(N)nc21; 25
Nc1nc(O)c2ncn(CO[C@H](CO)CCO)c2n1; 111
COC[C@@H](CO)OCn1cnc2c(O)nc(N)nc21; 32
C[C@@H](CO)OCn1cnc2c(O)nc(N)nc21; 28
Nc1nc(O)c2ncn(CO[C@H](CO)CF)c2n1; 67
Nc1nc(O)c2ncn(CO[C@H](CO)COC3CCCC3)c2n1; 21

Please give Activity for each item listed below.
1. Nc1nc(O)c2ncn(COCCOC(CO)CO)c2n1
2. Nc1nc(O)c2ncn(CO[C@H](CO)CCl)c2n1
3. Nc1nc(O)c2ncn(CCOC(CO)CO)c2n1
4. CC(CO)(CO)COCn1cnc2c(O)nc(N)nc21

Response:
23
33
35
100
